# TESTED_TARGET: PLL5 (Photorhabdus laumondii subsp. laumondii)
# ASSAY_COMMENT: Isothermal titration calorimetry (ITC)
# Assay type: binding, Photorhabdus laumondii subsp. laumondii TT01
# STATED_CONDITIONS: ITC, PLL5, stoichiometry N fixed to 2

GIVEN_SMILES	Kd, mM
C[C@H](O)[C@@H](O)[C@@H](O)[C@H](O)C=O	16.6

* * *

pIC50: −log10 of the molar value.
# pIC50 per entry for PLL (Photorhabdus laumondii subsp. laumondii)
MEASURED_PARAMETER: pIC50

MOLECULE	TESTED_TARGET	REPORTED_MEASUREMENT
CO[C@@H]([C@H](O)[C@H](O)CO)[C@@H](O)C=O	PLL (Photorhabdus laumondii subsp. laumondii)	1.32
C[C@H](O)[C@@H](O)[C@@H](O)[C@H](O)C=O	PLL (Photorhabdus laumondii subsp. laumondii)	1.71
CO[C@@H]1O[C@@H](C)[C@@H](O)[C@@H](O)[C@@H]1O [αMeFuc, methyl-α-L-fucoside]	PLL (Photorhabdus laumondii subsp. laumondii)	2.40

* * *

# TESTED_TARGET: UniProt:Q7N8J0
# ASSAY_COMMENT: SPR, apparent KD on immobilized sugar
# Parameters: species or system Photorhabdus laumondii subsp. laumondii TT01
# STATED_CONDITIONS: PLL binding to the immobilized sugar, 25 °C, read-out: KD(app)
MEASURED_PARAMETER: Kd (µM)

COMPOUND	TESTED_TARGET	REPORTED_MEASUREMENT
COC[C@H]1O[C@@H](O[C@@H]2[C@@H](OC)[C@@H](OC)[C@H](O)O[C@H]2C)[C@H](O)[C@@H](OC)[C@@H]1O [MGMR, 3,6-O-Me2-D-Glcβ1-4(2,3-O-Me2)-L-Rhaα]	UniProt:Q7N8J0	44

* * *

# TESTED_TARGET: PLL5 (Photorhabdus laumondii subsp. laumondii, UniProt Q7N8I5)
# Sequence (Q7N8I5 entry or part of it): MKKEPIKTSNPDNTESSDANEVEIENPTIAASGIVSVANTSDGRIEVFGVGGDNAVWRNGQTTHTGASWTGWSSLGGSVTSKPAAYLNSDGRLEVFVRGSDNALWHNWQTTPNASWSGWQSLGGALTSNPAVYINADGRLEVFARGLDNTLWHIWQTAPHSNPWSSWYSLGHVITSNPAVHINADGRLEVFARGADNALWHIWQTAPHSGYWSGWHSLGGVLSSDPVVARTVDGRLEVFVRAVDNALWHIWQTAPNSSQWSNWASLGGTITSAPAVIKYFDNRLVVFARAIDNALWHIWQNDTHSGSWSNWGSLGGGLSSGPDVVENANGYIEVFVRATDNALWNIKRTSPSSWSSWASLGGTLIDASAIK
# ASSAY_COMMENT: Isothermal titration calorimetry (ITC)
# Type: binding, Photorhabdus laumondii subsp. laumondii TT01
# STATED_CONDITIONS: ITC, PLL5, stoichiometry N fixed to 6
pKd: −log10 of the molar value.

COMPOUND	pKd
C[C@H](O)[C@@H](O)[C@@H](O)[C@H](O)C=O [L-Fuc, L-fucose]	1.81

* * *

# TESTED_TARGET: PLL4 (Photorhabdus laumondii subsp. laumondii, UniProt Q7N8I6)
# Sequence (Q7N8I6 entry or part of it): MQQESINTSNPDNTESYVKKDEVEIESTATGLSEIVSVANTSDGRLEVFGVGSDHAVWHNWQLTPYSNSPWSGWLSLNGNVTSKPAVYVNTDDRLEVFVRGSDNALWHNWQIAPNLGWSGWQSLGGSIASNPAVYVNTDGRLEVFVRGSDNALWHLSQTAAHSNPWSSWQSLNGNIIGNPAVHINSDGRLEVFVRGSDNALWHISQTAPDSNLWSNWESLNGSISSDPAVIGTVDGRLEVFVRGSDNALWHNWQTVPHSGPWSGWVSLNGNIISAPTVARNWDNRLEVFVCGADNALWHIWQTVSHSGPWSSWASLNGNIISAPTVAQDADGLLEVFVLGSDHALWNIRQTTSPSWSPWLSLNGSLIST
# ASSAY_COMMENT: Isothermal titration calorimetry (ITC)
# Assay type: binding, Photorhabdus laumondii subsp. laumondii TT01
# STATED_CONDITIONS: ITC, PLL4, stoichiometry N fixed to 4
pKd: −log10 of the molar value.

MOLECULE	pKd
C[C@H](O)[C@@H](O)[C@@H](O)[C@H](O)C=O [L-Fuc, L-fucose]	1.52
CO[C@@H]1O[C@@H](C)[C@@H](O)[C@@H](O)[C@@H]1O [αMeFuc, methyl-α-L-fucoside]	2.31

* * *

# TESTED_TARGET: PLL (Photorhabdus laumondii subsp. laumondii)
# Sequence (Q7N8J0 entry or part of it): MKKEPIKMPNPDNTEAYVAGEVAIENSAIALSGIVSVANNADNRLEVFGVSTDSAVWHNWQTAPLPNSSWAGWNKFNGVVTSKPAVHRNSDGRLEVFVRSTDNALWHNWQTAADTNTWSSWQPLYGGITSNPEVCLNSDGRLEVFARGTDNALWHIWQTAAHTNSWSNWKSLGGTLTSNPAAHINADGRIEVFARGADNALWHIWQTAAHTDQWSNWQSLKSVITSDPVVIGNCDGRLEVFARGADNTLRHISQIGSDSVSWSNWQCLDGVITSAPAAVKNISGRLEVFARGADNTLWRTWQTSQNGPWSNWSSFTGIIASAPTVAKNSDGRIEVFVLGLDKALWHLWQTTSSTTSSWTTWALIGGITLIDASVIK
# ASSAY_COMMENT: Isothermal titration calorimetry (ITC)
# Format: binding, Photorhabdus laumondii subsp. laumondii TT01
# STATED_CONDITIONS: ITC, stoichiometry N fixed to 2
MEASURED_PARAMETER: Kd (mM)

MOLECULE	MEASURED_PARAMETER	REPORTED_MEASUREMENT
CO[C@@H]1O[C@@H](C)[C@@H](O)[C@@H](O)[C@@H]1O [αMeFuc, methyl-α-L-fucoside]	Kd	3.6
